molecular target: Human Recombinant Gelatinase A (MMP-2) (Homo sapiens, UniProt P08253); assay: P218 quenched fluorescence (microfluorometric profiling) assay, MMP-2; type: biochemical; conditions: P218 6 μM, pH 6.5, 25 min, 37° C.; read-out: MMP-2 Ki
Sequence (P08253 110-660): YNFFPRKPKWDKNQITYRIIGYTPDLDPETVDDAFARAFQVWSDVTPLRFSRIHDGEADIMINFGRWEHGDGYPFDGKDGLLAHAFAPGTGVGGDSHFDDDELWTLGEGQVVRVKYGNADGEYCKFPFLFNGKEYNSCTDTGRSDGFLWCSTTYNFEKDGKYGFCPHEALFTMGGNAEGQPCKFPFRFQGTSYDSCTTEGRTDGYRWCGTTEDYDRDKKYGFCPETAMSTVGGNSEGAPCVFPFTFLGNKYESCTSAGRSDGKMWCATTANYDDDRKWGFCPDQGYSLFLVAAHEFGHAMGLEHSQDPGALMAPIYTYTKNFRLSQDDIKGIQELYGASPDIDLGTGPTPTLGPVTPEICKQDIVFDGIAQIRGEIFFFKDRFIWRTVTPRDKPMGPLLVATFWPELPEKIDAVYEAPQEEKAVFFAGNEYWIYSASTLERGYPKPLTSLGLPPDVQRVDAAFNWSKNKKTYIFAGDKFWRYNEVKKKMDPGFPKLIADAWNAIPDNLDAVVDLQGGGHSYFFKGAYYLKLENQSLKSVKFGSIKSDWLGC
The following compounds are listed with their measured pKi values.
Note: pKi values are expressed as the negative base-10 logarithm of concentration in M.

// known answers, use as guide
[[record]]
compound = "O=C(CC(CCc1cccc(C(=O)N2CCCCC2)c1)C(=O)O)c1ccc(-c2ccc(Cl)cc2)cc1 (stereo not drawn) [XI]"
value = 7.99

[[record]]
compound = "O=C(CC(CCc1ccc(C(=O)N2CCOCC2)cc1)C(=O)O)c1ccc(-c2ccc(Cl)cc2)cc1 (stereo not drawn) [XVII]"
value = 7.27

[[record]]
compound = "O=C(CC(CCc1ccccc1C(=O)NCCN1CCOCC1)C(=O)O)c1ccc(-c2ccc(Cl)cc2)cc1 (stereo not drawn) [Compound XXV]"
value = 7.29

[[record]]
compound = "O=C(CC(CCc1ccc(C(=O)NCCN2CCOCC2)cc1)C(=O)O)c1ccc(-c2ccc(Cl)cc2)cc1 (stereo not drawn) [XXIX]"
value = 7.09

[[record]]
compound = "O=C(O)CCNC(=O)c1cccc(CCC(CC(=O)c2ccc(-c3ccc(Cl)cc3)cc2)C(=O)O)c1 (stereo not drawn) [Compound XXVI]"
value = 7.12


Any idea what pKi was measured for O=C(CC(CCc1ccccc1C(=O)N1CCOCC1)C(=O)O)c1ccc(-c2ccc(Cl)cc2)cc1 (stereo not drawn) [II] ?
7.92

---

molecular target: Human Recombinant Gelatinase B (MMP-9) (Homo sapiens, UniProt P14780); construct: made in house; experiment: P218 quenched fluorescence (microfluorometric profiling) assay, MMP-9; assay type: biochemical
Sequence (P14780 107-707 limits assumed): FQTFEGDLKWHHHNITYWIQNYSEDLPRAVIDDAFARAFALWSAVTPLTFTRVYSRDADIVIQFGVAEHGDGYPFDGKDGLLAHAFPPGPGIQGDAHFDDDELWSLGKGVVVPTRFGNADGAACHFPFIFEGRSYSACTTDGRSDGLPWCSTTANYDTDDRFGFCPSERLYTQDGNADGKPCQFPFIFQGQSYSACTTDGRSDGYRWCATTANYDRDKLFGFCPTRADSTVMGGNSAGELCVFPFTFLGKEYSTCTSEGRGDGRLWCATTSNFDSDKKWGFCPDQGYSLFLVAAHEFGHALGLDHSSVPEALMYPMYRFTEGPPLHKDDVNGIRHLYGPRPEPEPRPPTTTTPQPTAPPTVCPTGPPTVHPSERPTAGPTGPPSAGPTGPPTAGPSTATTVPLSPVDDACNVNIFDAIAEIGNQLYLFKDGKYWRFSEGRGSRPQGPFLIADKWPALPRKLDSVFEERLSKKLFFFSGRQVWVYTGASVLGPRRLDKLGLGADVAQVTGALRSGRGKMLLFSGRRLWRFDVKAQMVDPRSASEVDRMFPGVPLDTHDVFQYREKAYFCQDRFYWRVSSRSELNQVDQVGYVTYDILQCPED
The following molecules are listed with their measured Ki values.

Any idea what Ki was measured for CCOC(=O)CCNC(=O)c1ccccc1CCC(CC(=O)c1ccc(-c2ccc(Cl)cc2)cc1)C(=O)O (stereo not drawn) [VII] ?
478 nM

Any idea what Ki was measured for O=C(CC(CCc1ccc(C(=O)N2CCOCC2)cc1)C(=O)O)c1ccc(-c2ccc(Cl)cc2)cc1 (stereo not drawn) [XVII] ?
606 nM

Any idea what Ki was measured for O=C(CC(CCc1ccccc1C(=O)N1CCOCC1)C(=O)O)c1ccc(-c2ccc(Cl)cc2)cc1 (stereo not drawn) [II] ?
323 nM

---

biological target: Recombinant Human CHO Stromelysin (MMP-3) (Homo sapiens, UniProt P08254); construct: made in house; host or cells: CHO cells; test: P218 quenched fluorescence (microfluorometric profiling) assay, MMP-3; type: biochemical; conditions: P218 6 μM, pH 6.5, 25 min, 37° C.; read-out: MMP-3 Ki
Sequence (P08254 100-477): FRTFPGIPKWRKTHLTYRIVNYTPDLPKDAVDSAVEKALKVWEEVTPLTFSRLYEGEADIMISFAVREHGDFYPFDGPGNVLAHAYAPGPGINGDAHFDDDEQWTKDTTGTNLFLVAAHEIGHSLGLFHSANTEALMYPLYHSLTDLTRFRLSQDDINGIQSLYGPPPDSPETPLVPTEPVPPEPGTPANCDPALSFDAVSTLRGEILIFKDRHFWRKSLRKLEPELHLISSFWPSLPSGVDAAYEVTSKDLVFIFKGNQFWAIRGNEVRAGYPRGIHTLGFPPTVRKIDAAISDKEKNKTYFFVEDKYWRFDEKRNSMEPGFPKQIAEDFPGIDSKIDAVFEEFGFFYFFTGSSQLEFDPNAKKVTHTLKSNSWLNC
ENDPOINT LABEL: pKi
Note: pKi values are expressed as the negative base-10 logarithm of concentration in M.

Any idea what pKi was measured for O=C(O)CCNC(=O)c1cccc(CCC(CC(=O)c2ccc(-c3ccc(Cl)cc3)cc2)C(=O)O)c1 (centres unmarked) ?
6.75

Any idea what pKi was measured for O=C(CC(CCc1cccc(C(=O)N2CCCCC2)c1)C(=O)O)c1ccc(-c2ccc(Cl)cc2)cc1 (centres unmarked) ?
7.46

Any idea what pKi was measured for O=C(CC(CCc1cccc(C(=O)NCCN2CCOCC2)c1)C(=O)O)c1ccc(-c2ccc(Cl)cc2)cc1 (centres unmarked) ?
6.45

Any idea what pKi was measured for O=C(CC(CCc1ccccc1C(=O)N1CCCCC1)C(=O)O)c1ccc(-c2ccc(OCc3ccccc3)cc2)cc1 (centres unmarked) ?
7.83

Any idea what pKi was measured for O=C(CC(CCc1ccccc1C(=O)NCCN1CCOCC1)C(=O)O)c1ccc(-c2ccc(Cl)cc2)cc1 (centres unmarked) ?
6.43

---

target: Human Recombinant Gelatinase B (MMP-9) (Homo sapiens, UniProt P14780); construct: made in house; assay: P218 quenched fluorescence (microfluorometric profiling) assay, MMP-9; format: biochemical; conditions: read-out: MMP-9 Ki; P218 6 μM, pH 6.5, 25 min, 37° C.
ENDPOINT LABEL: pKi
Note: pKi values are expressed as the negative base-10 logarithm of concentration in M.

API: value(readout= pKi, system= Human Recombinant Gelatinase B (MMP-9) (Homo sapiens, UniProt P14780), query= O=C(CC(CCc1ccc(C(=O)NCCN2CCOCC2)cc1)C(=O)O)c1ccc(-c2ccc(Cl)cc2)cc1 (stereo not shown) [XXIX] )
6.35

---

target: Recombinant Human CHO Stromelysin (MMP-3) (Homo sapiens); construct: made in house; host or cells: CHO cells; test: P218 quenched fluorescence (microfluorometric profiling) assay, MMP-3; type: biochemical; details: read-out: MMP-3 Ki; P218 6 μM, pH 6.5, 25 min, 37° C.
ENDPOINT LABEL: Ki (nM)
Report the value in nM with no unit label.

Any idea what Ki was measured for O=C(CC(CCc1ccc(C(=O)NCCN2CCOCC2)cc1)C(=O)O)c1ccc(-c2ccc(Cl)cc2)cc1 (stereo not shown) ?
465

---

target: Human Recombinant Gelatinase A (MMP-2) (Homo sapiens); assay: P218 quenched fluorescence (microfluorometric profiling) assay, MMP-2; assay type: biochemical
The following molecules are listed with their measured Ki values.
Report the value in nM with no unit label.

// known answers, use as guide
[[record]]
molecule = "CCOC(=O)CCNC(=O)c1ccccc1CCC(CC(=O)c1ccc(-c2ccc(Cl)cc2)cc1)C(=O)O (stereo not drawn) [VII]"
value = 27.1

[[record]]
molecule = "O=C(CC(CCc1ccccc1C(=O)N1CCCCC1)C(=O)O)c1ccc(-c2ccc(OCc3ccccc3)cc2)cc1 (stereo not drawn) [Compound XXXII]"
value = 13


Any idea what Ki was measured for O=C(CC(CCc1cccc(C(=O)NCCN2CCOCC2)c1)C(=O)O)c1ccc(-c2ccc(Cl)cc2)cc1 (stereo not drawn) [XXVII] ?
48

---

target: Human Recombinant Gelatinase B (MMP-9) (Homo sapiens, UniProt P14780); construct: made in house; test: P218 quenched fluorescence (microfluorometric profiling) assay, MMP-9; format: biochemical; conditions: P218 6 μM, pH 6.5, 25 min, 37° C.; read-out: MMP-9 Ki
The following compounds are listed with their measured Ki values.
Report the value in nM with no unit label.

[[record]]
compound = "O=C(CC(CCc1cccc(C(=O)NCCN2CCOCC2)c1)C(=O)O)c1ccc(-c2ccc(Cl)cc2)cc1 (centres unmarked) [XXVII]"
endpoint_label = "Ki"
readout_unit = "nM"
value = 786

[[record]]
compound = "O=C(CC(CCc1ccccc1C(=O)N1CCCCC1)C(=O)O)c1ccc(-c2ccc(OCc3ccccc3)cc2)cc1 (centres unmarked) [Compound XXXII]"
endpoint_label = "Ki"
readout_unit = "nM"
value = 167

[[record]]
compound = "O=C(CC(CCc1cccc(C(=O)N2CCCCC2)c1)C(=O)O)c1ccc(-c2ccc(Cl)cc2)cc1 (centres unmarked) [XI]"
endpoint_label = "Ki"
readout_unit = "nM"
value = 58.1

[[record]]
compound = "O=C(O)CCNC(=O)c1cccc(CCC(CC(=O)c2ccc(-c3ccc(Cl)cc3)cc2)C(=O)O)c1 (centres unmarked) [Compound XXVI]"
endpoint_label = "Ki"
readout_unit = "nM"
value = 706


Any idea what Ki was measured for O=C(CC(CCc1ccccc1C(=O)NCCN1CCOCC1)C(=O)O)c1ccc(-c2ccc(Cl)cc2)cc1 (centres unmarked) [Compound XXV] ?
744
